Molecular target: T1, His-tagged soluble human ADAM9 (shADAM9-His) (human, UniProt Q13443 206-697)
T1 construct: Contains an extracellular portion of human ADAM9; also called huADAM9-His; His peptide-tagged soluble huADAM9
T1 sequence: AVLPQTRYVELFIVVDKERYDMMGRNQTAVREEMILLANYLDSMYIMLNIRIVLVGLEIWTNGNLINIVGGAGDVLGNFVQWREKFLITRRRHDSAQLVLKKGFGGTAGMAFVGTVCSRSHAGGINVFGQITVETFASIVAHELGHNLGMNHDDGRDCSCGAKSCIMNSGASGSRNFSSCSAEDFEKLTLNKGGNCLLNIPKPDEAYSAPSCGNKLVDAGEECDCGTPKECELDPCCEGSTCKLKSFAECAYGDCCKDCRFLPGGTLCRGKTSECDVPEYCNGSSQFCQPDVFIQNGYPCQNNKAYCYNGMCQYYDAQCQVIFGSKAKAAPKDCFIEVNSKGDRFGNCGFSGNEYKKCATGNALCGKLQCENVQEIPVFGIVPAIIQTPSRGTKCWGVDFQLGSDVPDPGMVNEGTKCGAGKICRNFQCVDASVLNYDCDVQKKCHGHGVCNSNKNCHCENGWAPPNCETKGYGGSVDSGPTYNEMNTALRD
Experiment: SPR (BIACORE), antibody captured, huADAM9-His in flow

Binder	kon
hMAB-A (2D.2) (antibody, V domains shown, also called MAB-A VH(2D); MAB-A VH(2D.2)) VH: EVQLVESGGGLVKPGGSLRLSCAASGFTFSSYWMHWVRQAPGKGLEWVGEIIPIFGHTNYNEKFKSRFTISLDNSKNTLYLQMGSLRAEDTAVYYCARGGYYYYTGKGVLDYWGQGTTVTVSS VL: DIVMTQSPDSLAVSLGERATISCKASQSVDYSGDSYMNWYQQKPGQPPKLLIYAASDLESGIPARFSGSGSGTDFTLTISSLEPEDFATYYCQQSHEDPFTFGQGTKLEIK	690000 M⁻¹ s⁻¹
